STUDY_SYSTEM: Prostaglandin G/H synthase 2 (Homo sapiens, UniProt P35354)
Sequence (P35354 whole entry): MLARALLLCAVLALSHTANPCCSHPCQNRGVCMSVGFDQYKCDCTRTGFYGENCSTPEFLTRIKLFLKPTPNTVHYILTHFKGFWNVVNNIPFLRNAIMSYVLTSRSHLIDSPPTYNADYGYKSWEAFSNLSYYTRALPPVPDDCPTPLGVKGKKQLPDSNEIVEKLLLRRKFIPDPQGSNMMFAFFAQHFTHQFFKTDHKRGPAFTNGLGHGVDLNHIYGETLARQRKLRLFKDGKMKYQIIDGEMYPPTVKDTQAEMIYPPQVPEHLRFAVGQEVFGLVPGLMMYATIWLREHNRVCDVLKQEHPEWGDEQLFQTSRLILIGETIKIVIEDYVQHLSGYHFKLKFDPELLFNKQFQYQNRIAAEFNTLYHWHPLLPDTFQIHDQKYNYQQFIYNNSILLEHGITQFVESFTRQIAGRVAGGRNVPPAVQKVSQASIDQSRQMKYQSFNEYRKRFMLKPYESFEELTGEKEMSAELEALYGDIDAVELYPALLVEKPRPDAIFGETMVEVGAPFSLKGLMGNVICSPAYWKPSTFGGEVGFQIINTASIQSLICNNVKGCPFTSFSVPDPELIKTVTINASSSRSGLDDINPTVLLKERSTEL
ASSAY_NAME: Inhibition of COX2 (unknown origin)
READOUT: IC50 (µM)
Expressed in µM, but write only the number.

// query Entry under review: O=c1c(/C=N/Nc2ccc(C(F)(F)F)cc2)coc2c1ccc1oc(-c3ccc(Cl)cc3)cc12 . Reported IC50?
// result 10.4

* * *

STUDY_SYSTEM: Cholinesterase (Homo sapiens)
Sequence (P06276 whole entry): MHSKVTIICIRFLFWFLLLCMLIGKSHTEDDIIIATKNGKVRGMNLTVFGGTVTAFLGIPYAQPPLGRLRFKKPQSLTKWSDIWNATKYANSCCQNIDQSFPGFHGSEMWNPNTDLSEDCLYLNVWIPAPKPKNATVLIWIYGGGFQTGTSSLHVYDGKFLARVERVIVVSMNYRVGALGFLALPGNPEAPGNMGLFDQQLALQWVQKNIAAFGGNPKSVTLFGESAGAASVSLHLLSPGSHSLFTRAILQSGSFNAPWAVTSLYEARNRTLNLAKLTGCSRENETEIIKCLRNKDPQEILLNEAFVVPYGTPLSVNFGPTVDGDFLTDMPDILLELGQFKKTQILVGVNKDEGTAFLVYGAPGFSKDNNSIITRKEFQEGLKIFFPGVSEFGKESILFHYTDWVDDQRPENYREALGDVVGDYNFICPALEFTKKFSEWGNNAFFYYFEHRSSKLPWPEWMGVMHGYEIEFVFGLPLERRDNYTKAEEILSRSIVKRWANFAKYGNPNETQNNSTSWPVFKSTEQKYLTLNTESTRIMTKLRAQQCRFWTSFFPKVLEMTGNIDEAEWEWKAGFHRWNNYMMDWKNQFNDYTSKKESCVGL
ASSAY_NAME: Inhibition of BuChE (unknown origin) using butyrylthiocholine iodide as substrate preincubated for 20 mins followed by substrate addition by Ellman's method
READOUT: pIC50
Schema: pIC50 number; meaning minus log10 of the concentration expressed in molar units.

// query Entry under review: O=c1c(O)c(-c2ccccc2)oc2cc(Br)c(I)cc12 . Reported pIC50?
// result 5.22

* * *

STUDY_SYSTEM: Acetylcholinesterase (Electrophorus electricus)
Sequence (O42275 whole entry): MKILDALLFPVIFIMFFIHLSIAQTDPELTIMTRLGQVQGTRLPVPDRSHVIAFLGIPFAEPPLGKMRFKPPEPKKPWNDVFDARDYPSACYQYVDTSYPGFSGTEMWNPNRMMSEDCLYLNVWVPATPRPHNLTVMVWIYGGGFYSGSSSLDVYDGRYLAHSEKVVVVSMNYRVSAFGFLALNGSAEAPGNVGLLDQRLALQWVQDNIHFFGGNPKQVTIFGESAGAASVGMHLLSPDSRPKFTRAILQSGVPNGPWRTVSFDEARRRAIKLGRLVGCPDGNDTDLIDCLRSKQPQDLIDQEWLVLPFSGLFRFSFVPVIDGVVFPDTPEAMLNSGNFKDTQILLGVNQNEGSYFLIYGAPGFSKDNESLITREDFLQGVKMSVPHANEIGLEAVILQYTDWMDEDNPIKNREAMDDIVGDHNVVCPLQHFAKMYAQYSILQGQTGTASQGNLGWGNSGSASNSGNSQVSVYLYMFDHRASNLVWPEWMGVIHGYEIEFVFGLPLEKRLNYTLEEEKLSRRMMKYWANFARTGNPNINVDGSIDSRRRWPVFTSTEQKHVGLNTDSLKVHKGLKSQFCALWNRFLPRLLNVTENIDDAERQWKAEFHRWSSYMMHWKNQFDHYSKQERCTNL
ASSAY_NAME: Inhibition of electric eel AChE using acetylthiocholine iodide as substrate preincubated for 5 mins followed by substrate addition and measured upto 7.5 mins by Ellman's method
READOUT: IC50 (µM)
Expressed in µM, but write only the number.

// query Item: Cc1ccc(C#CCOc2ccccc2/C=C/c2cc(=O)c3ccccc3o2)cc1 Test system: Acetylcholinesterase (Electrophorus electricus) Read-out: IC50 Value: ?
// result 3

* * *

STUDY_SYSTEM: UniProt P22303
Sequence (P22303 whole entry): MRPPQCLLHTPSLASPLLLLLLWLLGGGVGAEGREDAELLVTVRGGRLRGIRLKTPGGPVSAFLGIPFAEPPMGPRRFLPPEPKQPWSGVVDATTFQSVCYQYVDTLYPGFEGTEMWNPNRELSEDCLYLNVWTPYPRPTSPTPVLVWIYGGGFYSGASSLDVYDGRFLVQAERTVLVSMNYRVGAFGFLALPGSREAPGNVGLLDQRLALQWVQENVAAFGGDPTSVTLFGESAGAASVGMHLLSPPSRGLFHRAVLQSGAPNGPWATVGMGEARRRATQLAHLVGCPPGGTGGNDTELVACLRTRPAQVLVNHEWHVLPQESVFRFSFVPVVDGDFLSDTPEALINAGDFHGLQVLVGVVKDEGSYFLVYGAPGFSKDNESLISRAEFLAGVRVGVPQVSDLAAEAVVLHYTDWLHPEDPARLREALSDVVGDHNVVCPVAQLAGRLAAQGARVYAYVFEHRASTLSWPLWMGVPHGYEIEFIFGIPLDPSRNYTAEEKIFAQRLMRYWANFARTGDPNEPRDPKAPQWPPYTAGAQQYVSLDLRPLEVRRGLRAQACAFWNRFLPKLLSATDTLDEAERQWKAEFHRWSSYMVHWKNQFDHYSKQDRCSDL
ASSAY_NAME: Inhibition of AChE (unknown origin) using acetylthiocholine iodide as substrate preincubated for 20 mins followed by substrate addition by Ellman's method
READOUT: pIC50
Schema: pIC50 number; meaning minus log10 of the concentration expressed in molar units.

// query Item: O=c1c(O)c(-c2ccccc2)oc2cc(Br)c(I)cc12 Test system: UniProt P22303 Read-out: pIC50 Value: ?
// result 5.00

* * *

STUDY_SYSTEM: Polyunsaturated fatty acid lipoxygenase ALOX15 (Homo sapiens)
Sequence (P16050 whole entry): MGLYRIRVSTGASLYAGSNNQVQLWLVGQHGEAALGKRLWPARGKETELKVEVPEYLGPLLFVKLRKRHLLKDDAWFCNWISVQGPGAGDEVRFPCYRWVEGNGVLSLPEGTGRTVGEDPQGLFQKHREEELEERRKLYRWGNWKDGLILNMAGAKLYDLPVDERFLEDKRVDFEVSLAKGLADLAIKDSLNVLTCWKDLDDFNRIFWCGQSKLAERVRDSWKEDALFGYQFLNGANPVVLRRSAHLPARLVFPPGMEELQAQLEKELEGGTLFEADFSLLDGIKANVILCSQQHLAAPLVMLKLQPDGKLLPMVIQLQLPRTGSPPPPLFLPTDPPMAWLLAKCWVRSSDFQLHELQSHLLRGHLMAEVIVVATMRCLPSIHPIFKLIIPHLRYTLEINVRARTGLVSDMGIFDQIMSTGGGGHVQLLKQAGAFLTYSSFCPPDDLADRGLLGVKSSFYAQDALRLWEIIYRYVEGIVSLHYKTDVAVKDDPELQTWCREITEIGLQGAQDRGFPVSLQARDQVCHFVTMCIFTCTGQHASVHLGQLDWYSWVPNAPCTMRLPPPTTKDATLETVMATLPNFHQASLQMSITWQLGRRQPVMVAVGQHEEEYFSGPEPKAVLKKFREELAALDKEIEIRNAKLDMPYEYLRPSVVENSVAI
READOUT: IC50

// query Entry under review: COc1ccc(-c2cc3cc4c(=O)c(C=O)coc4cc3o2)cc1 . Reported IC50?
// result 9.6 µM
